- systemName: recombinant human A1 receptors (hA1) (Homo sapiens)
- Sequence (P30542 whole entry): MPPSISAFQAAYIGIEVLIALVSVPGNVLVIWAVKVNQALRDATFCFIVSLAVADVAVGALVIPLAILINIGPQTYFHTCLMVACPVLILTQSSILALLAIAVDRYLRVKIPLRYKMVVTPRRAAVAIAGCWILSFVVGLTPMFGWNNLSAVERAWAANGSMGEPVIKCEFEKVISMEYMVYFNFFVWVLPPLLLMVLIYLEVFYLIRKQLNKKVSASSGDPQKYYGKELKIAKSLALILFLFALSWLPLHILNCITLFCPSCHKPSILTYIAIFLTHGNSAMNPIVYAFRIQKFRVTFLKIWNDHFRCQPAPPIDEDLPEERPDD
- experimentDescription: Radioligand binding ([3H]CPX) at recombinant human A1 receptors in HEK-293 cells
measurementKind: Ki (nM)
# output: bare number, implied unit nM

For the compound CCCn1c(=O)c2[nH]c(-c3ccc(OCC(=O)NN4C(=O)CC[C@H](NC(=O)C(F)(F)F)C4=O)cc3)nc2n(CCC)c1=O , what Ki is on record? 149

For the compound CCCn1c(=O)c2[nH]c(-c3ccc(OCC(=O)NN4C(=O)[C@H]5CC=CC[C@H]5C4=O)cc3)nc2n(CCC)c1=O , what Ki is on record? 129

Recorded values, source patent US6545002B1.
